test system: ATP; assay: switch fluorescence ratio, 500 uM ATP over buffer (Cy3 cluster intensity, sum of 5 cycles each) (fold (ratio)); higher = stronger signal-on switching upon ATP binding; sequences stand for … in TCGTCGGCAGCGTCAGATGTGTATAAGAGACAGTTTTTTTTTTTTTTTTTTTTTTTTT…TC; details: aptamer strand: ATP DNA aptamer (quencher-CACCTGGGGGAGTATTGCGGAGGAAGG + anchor), 100 nM annealed; ATP concentration: 500 uM;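 also: ATP exposure 15 min at 22 °C before imaging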
# Lookup of reported switch fluorescence ratio keyed by entry

seq string	switch fluorescence ratio
TTATTTGATT	1.01
AATTAGGTGG	1.01
ATCATGCATT	0.989
GCTAGGGCTT	1.01
GAGTGGGTCG	0.983
CAGCTAAATT	1.02
ATGAAAGGGA	1.02
TTATGAAGAC	1.02
ATTAACTTTG	1.01
TGCCATAATG	1.02
ATGGGTGATC	1.01
AGTTGGTAG	1.02
GTATTAGCTG	0.974
GTGGGACTGT	1.01
CATGATGCTG	1.01
